Hey, just so you know, these numbers are from ChEMBL document CHEMBL1157539.

- Tested on: Plasmodium falciparum
- test_method_notes: GSK_TCMDC: Inhibition of Plasmodium falciparum 3D7 in whole red blood cells, using parasite LDH activity as an index of growth. Test compounds present at 2uM
- Assay type: functional
Some compounds, each annotated with its measured Inhibition.
Form entry: value (%) — number only.

> print(dat)
                                   compound  metric.name  measurement.unit  value
1       CCN(CC)CCNc1ccnc2[nH]c3ccc(I)cc3c12   Inhibition                 %    100
2  O=C(Nc1ccc([N+](=O)[O-])cc1)Nc1cc(C(F)(F)F)ccc1F   Inhibition                 %     89
3  CN1CCCC(CN2CCN(Cc3cccc(-c4ccc(-c5nc6ccccc6[nH]5)s4)c3)CC2)C1.O=C(O)C(F)(F)F (stereo not given)   Inhibition                 %     99
4  Cl.N#Cc1ccc2c(c1)CCN(CCC1CCC(NC(=O)Nc3ccncc3)CC1)C2 (stereo not given)   Inhibition                 %     85

Now consider the entry below.
State the recorded Inhibition for this entry: Fc1ccc2[nH]cc(CCNCc3ccc(-c4cccc(-c5nc6ccccc6[nH]5)c4)cc3)c2c1.O=C(O)C(F)(F)F
100

* * *

- System: Plasmodium falciparum
- test_method_notes: GSK_TCMDC: Inhibition of Plasmodium falciparum 3D7 in whole red blood cells, using parasite LDH activity as an index of growth. Test compounds present at 2uM
- Format: functional
metric_name: Inhibition (%)
Just the number please, in %, no unit attached.

Take a look at these entries with their results.
> print(dat)
                                   compound          system.tested  value
1  CCC[C@@H]([C@@H](CC1CCCCC1)C(=O)N[C@H](C(=O)Nc1ccccn1)[C@H](C)CC)N(O)C=O  Plasmodium falciparum     96
2  CCOc1cc(Cl)c(C(C)NC(=O)c2cccc(OC)c2)cc1OCC (centres undefined)  Plasmodium falciparum     98
3          CCOc1cc(Cc2cnc(N)nc2N)cc(Br)c1OC  Plasmodium falciparum     83
4  COc1ccc2c(=NN=Cc3c(OC)ccc4ccccc34)cc(C)[nH]c2c1  Plasmodium falciparum    100
5  COc1cc(NC(=O)c2cc([N+](=O)[O-])ccc2NC(=O)CNC2CCCCC2C)cc(OC)c1 (centres undefined)  Plasmodium falciparum     87

Suppose we examine the compound O=C(N[C@@H](CC1CCCCC1)C(=O)NC1CC1)c1ccc(O)c(-c2cccc(C(F)(F)F)c2)c1 ; what Inhibition value has been reported?
99

Can you share its Inhibition? I mean this compound: CCCCc1ccc(NC(=O)Nc2ccc3c(c2)CCNCC3)cc1.Cl
95

Param item = Cc1cccc(CC2CC(=O)N(c3ccc([N+](=O)[O-])cc3)C2=O)c1 (centres undefined) ; retrieve measured Inhibition.
95

Which measured Inhibition value corresponds to O=C1C2C(c3ccc(Cl)c(Cl)c3)N3CC(OCc4ccccc4)CC3(C(=O)O)C2C(=O)N1c1ccc(Br)cc1 (centres undefined) ?
100

* * *

- Test system: Plasmodium falciparum
- test_method_notes: GSK_TCMDC: Inhibition of Plasmodium falciparum Dd2 in whole red blood cells, using parasite LDH activity as an index of growth. Test compounds present at 2uM
- Type: functional
# key: entry, value: Inhibition
Show the value, then the unit it is measured in.

Sample answers from the record:
> print(dat)
                              smiles.record  metric.name  value
1  CN1CCN(CCCN(Cc2ccc(-c3cccc(CNCc4ccc5c(c4)OCO5)c3)cc2)C(=O)Nc2ccccc2)CC1.O=C(O)C(F)(F)F   Inhibition    87%
2  COc1cc(NCCCNCc2cn(S(=O)(=O)c3ccccc3)c3ccccc23)nc2ccccc12   Inhibition    77%
3  O=C(Nc1cccc(CN2CCCN(Cc3cccc(Cl)c3)CC2)c1)c1ccc(-c2ccccc2)cc1.O=C(O)C(F)(F)F   Inhibition    14%

Query compound follows.
// lookup Inhibition for COc1cc2c(cc1S(=O)(=O)c1ccc(OCc3ccc(Cl)cc3)cc1)CCN(Cc1ccc(NC(C)=O)s1)CC2
0%
